Hello, the source for this data is patent US20260069689A1, in case you need it.

target: SARS-COV-2 RBD extracellular domain expressed with a C-terminal mouse IgG2a Fc (SARS-CoV-2); test: Biacore SPR, mAb captured on anti-hFc, 25 C
parameter: log10 of koff (log10 of the value in s⁻¹)
Please keep in mind that the values are log10 of koff expressed in s⁻¹.

Take a look at these entries with their results.
{"columns": ["binder", "parameter", "assayResult"],
 "data": [
  ["mAb14257 (antibody, V domains shown) VH: EVQLVESGGGLVQPGGSLRLSCAASGFTVSRSYMNWVRQAPGKGLEWVSVVFTGGTTKHTDSVKGRFTISRDNSMNTLYLQMNSLRPEDTAVYYCARVAIVETTGAFDIWGQGTMVTVSS VL: QSVLTQPPSVSGAPGQRVTISCTGTSSNIGADFDVHWYQQFPGTAPKLLIYGHTNRPSGIPDRFSGSKSGTSASLAITGLQAEDEADYYCQSYDSSLSGSVVFGGGTKLTVLG", "log10 of koff", -3.60],
  ["mAb15151 (antibody, V domains shown) VH: QVQLVESGGGVVQPGRSLRLSCAASGFVFNSYGMHWVRQAPGKGLEWVAVLWYEGSKNYYADSVKGRFTISRDNSKNTLYLQMNSLRAEDTAVYYCARHGSGSFFGYYLDYWGQGTLVTVSS VL: DIQMTQSPSSLSASVGDRVTITCRASHNINDFLNWYQQKPGKAPRLLIYAASSLQSGVPSRFSGSGSGTDFTLTISSLQPEDFATYYCQESYTTPPTFGQGTKLEIKR", "log10 of koff", -4.51],
  ["mAb14235 (antibody, V domains shown) VH: QITLKESGPTLVKPTQTLTLTCTFSGFSLNTGGVGVGWIRQPPGNALEWLALIYWDDDKRYNPSLKTRLTISKDTSKNQVVLTMTNMDPVDTATYFCAHLTIAVIVDFWGQGTLVTVSS VL: QSALTQPASVSGSPGQSITISCTATSSDVGTYNYVSWFQHHPGKAPKLMIYEVTNRPSGVSNRFSGSKSGNTASLTISGLQAEDEADYYCSSYTTTSIVFGGGTKLTVLG", "log10 of koff", -4.16],
  ["mAb14258 (antibody, V domains shown) VH: QLQLQESGPGLVKPSETLSLICTGSGDSISSSHYYWGWIRQPPGKGLEWIGSTYFSGSTYYNPSLKSRVSISVDTSKNQVSLKLISVTAADTAVYYCAREMGATLGDYWGPGTLVTVSS VL: QSVLTQPPSASGTPGQRVTISCSGSSSNIGNNYVYWYQQFPGTTPRLLIYRNNERPSGVPDRFSGSKSGTSASLVISGLRSEDEADYYCAAWDDSLSAHYVFGTGTKVTVLG", "log10 of koff", -3.96],
  ["mAb14280 (antibody, V domains shown) VH: QVQLVQSGAEVKKPGASVRVSCKASGYTFTGNYIHWVRQAPGQGLEWMAWINPNSGGKNYAQKFQGRVTLTRDTSVNTAYMELSRLRSDDTAMYYCARDVNYNILTGPGGLWGQGTLVTVSS VL: QSALTQPPSASGSPGQSVTISCTGTSSDVGGYNFVSWYQQHPGKAPKLMIYEVSKRPSGVPDRFSGSKSGNTASLTVSGLQAEDEADYYCSSYAGSNNFVFGTGTKVTVLG", "log10 of koff", -3.43],
  ["mAb14282 (antibody, V domains shown) VH: QVQLVQSGAEVKKPGASVKVSCKASGYIFTDHYMHWVRQAPGQGLEWMGWINPNSGATNYAQNFQGRVTMTRDTSIITVYMELSRLRSDDTAVYYCARDSSPYMIRYTMDVWGQGTTITVSS VL: QSALTQPASVSGSPGQSITISCTGTSSDVGSYNLVSWYQQHPGKAPKLMIYELTKRPSGVSNRFSGSKSGNTASLTISGLQAEDEADYYCSSYRGSVTDVVFGGGTKLTVLG", "log10 of koff", -3.39],
  ["mAb14234 (antibody, V domains shown) VH: QVQLVESGGGVVQPGRSLRLSCAASGFTFSSYGIHWVRQAPGKGLEWVAIIWYDGSEKYYADSVKGRFTISRDNSKNTLFLQMNSLEAEDTAVYYCARGPDLLTGYYNYFYYGMDVWGQGTTVTVSS VL: QSVLTQPPSVSGAPGQRVTISCTGSSSNIGIGYDVHWYQQLPGTVPKLLIYGNTNRPSGVPDRFSGSKSGTSASLAITGLQAEDEADYYCQSYDSSLSSYVFGTGTKVTVLG", "log10 of koff", -3.92],
  ["mAb13458 (antibody, V domains shown) VH: EVQLVESGGGLVQPGRSLRLSCAASGFTFDDYAMHWVRQAPGKGLEWVSGISWNSGSIGYADSVKGRFTISRDNAKNSLYLQMNSLRAEDTALYYCAKDIGITTPYWGQGTLVTVSS VL: AIQMTQSPSSLSASVGDRVTITCRASQDIRNDLGWYQQKPGKAPKLLIYSASSLQTGVPSRFSGSGSGTDFTLTISSLHPEDFATYYCLQDYWYTWTFGQGTKVEIKR", "log10 of koff", -4.12],
  ["mAb14255 (antibody, V domains shown) VH: QVQLQESGPGLVKPSETLSLTCTVSGGSISGYYWSWIRQPPGKGLDWIGYIYYRGNTNYNPSLKSRVTISVDTSNNQFSLKLSSVTAADTAVYYCARYGEGYGDASGYHFDYWGQGTLVTVSS VL: QSALTQPASVSGSPGQSITISCTGTSSDVGSYNLVSWYQQHPGKAPKLMIYEDSKRPSGVANPFSGSKSGNTASLTISGLQAEDEADYYCSSYAGSSTWVFGGGTKLTVLG", "log10 of koff", -3.80]
]}

Form field log10 of koff, entry mAb14232 (antibody, V domains shown) VH: QITLKESGPTLVKPTQTLTLTCTFSGFSLSASGVGVGWIRQPPGKALEWLALIYWDDDKRYSPSLKSRLTITKDTSKNQVVLTMTNMDPVDTATYYCAQHKVATIFDYWGQGTLVTVSS VL: QSALTQPPSASGSPGQSVTISCTATSSDVGNYNYVSWYQQHPGKAPKLMIYEVTKRPSGVPDRFSGSKSGNTASLTVSGLQAEDEADYYCSSYAGSWGVFGGGTKLTVLG : -2.76
